Experiment description: Toxicity in chick embryo assessed as death at 1 ug, iv incubated for 7 days relative to control
Assay type: organism-based
Conditions: in vivo, at 1 µg, time 7 day, read-out: Activity
Endpoint name: mortality at 168 h (%)

{"Smiles input": "COc1cc(NS(=O)(=O)c2ccc(N3CCCC3=O)cc2)cc(OC)c1OC", "Endpoint name": "mortality at 168 h", "Uom": "%", "Number": 8}

====

Tested on: MCF7
Experiment description: Antiproliferative activity against human MCF7 cells assessed as reduction in cell viability measured after 48 hrs by sulforhodamine B assay
Assay type: functional, cell-based
Conditions: MCF7, 48 h
pIC50: −log10 of the molar value.
Assign 1 (yes) to entries whose pIC50 meets or exceeds 7; assign 0 (no) to the rest.

{"Smiles input": "O=C1CCCN1c1ccc(S(=O)(=O)Oc2cccc(I)c2)cc1", "Cat": "1 (yes)"}
{"Smiles input": "COc1ccc(OS(=O)(=O)c2ccc(N3CCCC3=O)cc2)cc1OC", "Cat": "0 (no)"}
{"Smiles input": "COc1ccc(NS(=O)(=O)c2ccc(N3CCCC3=O)cc2)cc1OC", "Cat": "0 (no)"}
{"Smiles input": "O=C1CCCN1c1ccc(S(=O)(=O)Oc2ccccc2)cc1", "Cat": "0 (no)"}
{"Smiles input": "O=C1CCCN1c1ccc(S(=O)(=O)Nc2cccc(I)c2)cc1", "Cat": "0 (no)"}
{"Smiles input": "COc1cc(OS(=O)(=O)c2ccc(N3CCCC3=O)cc2)cc(OC)c1OC", "Cat": "1 (yes)"}
